# subjectOfTest: T1, C-terminal domain-deleted human Regnase-1 (amino acids 1 to 546) with N-terminal FLAG tag and C-terminal BirA … (human, UniProt Q5D1E8 1-546)
# T1 sequence: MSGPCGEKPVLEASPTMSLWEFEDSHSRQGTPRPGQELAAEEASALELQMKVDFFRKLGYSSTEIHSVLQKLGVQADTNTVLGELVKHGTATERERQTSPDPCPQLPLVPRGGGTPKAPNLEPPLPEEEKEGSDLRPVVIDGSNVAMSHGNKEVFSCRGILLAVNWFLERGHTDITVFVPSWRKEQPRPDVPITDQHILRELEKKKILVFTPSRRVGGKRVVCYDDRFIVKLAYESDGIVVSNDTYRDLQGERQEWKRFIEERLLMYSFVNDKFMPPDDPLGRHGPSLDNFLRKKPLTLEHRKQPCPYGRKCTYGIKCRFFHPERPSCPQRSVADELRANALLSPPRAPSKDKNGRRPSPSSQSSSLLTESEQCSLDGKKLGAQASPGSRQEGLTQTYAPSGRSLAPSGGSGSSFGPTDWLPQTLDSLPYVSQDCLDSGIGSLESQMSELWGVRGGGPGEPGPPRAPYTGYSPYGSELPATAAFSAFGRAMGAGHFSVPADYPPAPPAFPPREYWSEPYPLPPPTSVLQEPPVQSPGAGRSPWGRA
# measurementDescription: cell-based or functional assay
Positions of bridges follow the written chain, without caps; N, C: chain ends. Non-standard residues stand in square brackets, D forms with d. *: point of attachment. Pyrrolidide = C1CCN(*)C1; dNMeA = CN[C@H](C)C(=O)O
Exercise: state measured 50% inhibition concentration, Regnase-1 phosphorylation by IKKβ (AlphaScreen) for each of the binders provided.
# value in µM; strip the unit string

Q: Entry XNSWYRIWGLD (HELM PEPTIDE1{[meA].N.S.W.Y.R.I.W.G.L.D.[C1CCN([*:1])C1]}$PEPTIDE1,PEPTIDE1,1:R1-11:R3$$$V2.0; SMILES CC[C@H](C)[C@@H]1NC(=O)[C@H](CCCNC(=N)N)NC(=O)[C@H](Cc2ccc(O)cc2)NC(=O)[C@H](Cc2c[nH]c3ccccc23)NC(=O)[C@H](CO)NC(=O)[C@H](CC(N)=O)NC(=O)[C@H](C)N(C)C(=O)C[C@@H](C(=O)N2CCCC2)NC(=O)[C@H](CC(C)C)NC(=O)CNC(=O)[C@H](Cc2c[nH]c3ccccc23)NC1=O) [PP22] needs its 50% inhibition concentration, Regnase-1 phosphorylation by IKKβ (AlphaScreen) filled in; supply it.
Result: 34

Q: Entry [dNMeA]KHASAWYRIWD-Pyrrolidide (lactam N-12) [PP3] needs its 50% inhibition concentration, Regnase-1 phosphorylation by IKKβ (AlphaScreen) filled in; supply it.
Result: 8.3
